All figures here come from patent US10981926B2.

target: wild-type Androgen Receptor (AR-wt) (Homo sapiens (Human)); experiment: LNCaP-AR-wt ANT reporter assay (antagonist mode); type: cell-based; settings: antagonist mode; maximum % inhibition of R1881 control response over tested concentration range; read-out: LNCaP-AR-wt ANT MAX % Inh
Sequence (P10275 whole entry): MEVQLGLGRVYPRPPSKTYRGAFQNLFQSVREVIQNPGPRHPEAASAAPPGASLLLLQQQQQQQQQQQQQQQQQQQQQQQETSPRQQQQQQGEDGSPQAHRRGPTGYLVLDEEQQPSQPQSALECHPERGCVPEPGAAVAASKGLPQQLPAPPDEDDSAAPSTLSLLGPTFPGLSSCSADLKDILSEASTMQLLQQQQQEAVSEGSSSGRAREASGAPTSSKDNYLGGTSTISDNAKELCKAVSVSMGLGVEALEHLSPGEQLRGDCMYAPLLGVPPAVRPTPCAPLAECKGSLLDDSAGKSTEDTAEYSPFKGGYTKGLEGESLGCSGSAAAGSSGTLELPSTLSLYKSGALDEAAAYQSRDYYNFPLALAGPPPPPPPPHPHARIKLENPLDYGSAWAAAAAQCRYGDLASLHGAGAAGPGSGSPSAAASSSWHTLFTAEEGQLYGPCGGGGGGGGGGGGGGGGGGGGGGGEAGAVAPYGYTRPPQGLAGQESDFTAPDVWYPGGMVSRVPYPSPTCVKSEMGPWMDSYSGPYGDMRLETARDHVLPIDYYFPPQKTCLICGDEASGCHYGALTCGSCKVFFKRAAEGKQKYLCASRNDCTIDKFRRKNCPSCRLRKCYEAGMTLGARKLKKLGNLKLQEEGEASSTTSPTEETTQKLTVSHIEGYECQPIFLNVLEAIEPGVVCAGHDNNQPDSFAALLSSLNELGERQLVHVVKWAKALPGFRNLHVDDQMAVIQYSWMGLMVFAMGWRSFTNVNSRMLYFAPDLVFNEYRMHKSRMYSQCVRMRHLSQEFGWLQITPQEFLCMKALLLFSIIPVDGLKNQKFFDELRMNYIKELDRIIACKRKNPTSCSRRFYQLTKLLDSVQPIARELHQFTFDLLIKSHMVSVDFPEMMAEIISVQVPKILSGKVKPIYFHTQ
QUANTITY_NAME: Emax (%)

// known answers, use as guide
N#Cc1ncc(N2C(=O)C3(CCC3)N(c3ccc(O[C@H]4CCN[C@H](CO)C4)cc3)C2=S)cc1C(F)(F)F (racemic)	99.6
CN1CC[C@@H](CNC(=O)c2ccc(N3C(=S)N(c4cnc(C#N)c(C(F)(F)F)c4)C(=O)C34CCC4)cc2)C1	101

[a] N#Cc1ncc(N2C(=O)C3(CCC3)N(c3ccc(CN4CCNC(=O)C4)cc3)C2=S)cc1C(F)(F)F
[b] N#Cc1ncc(N2C(=O)C3(CCC3)N(c3cnc(OC4CCN(CCO)CC4)nc3)C2=S)cc1C(F)(F)F
IN: Between the entries labeled a and b , whose measured Emax is lower? Selection: enter the item's label.
OUT: b
(b: 0%, a: 102%)

###

molecular target: F876L mutant Androgen Receptor (AR-F876L) (Homo sapiens (Human), UniProt P10275, F877L); experiment: LNCaP-AR-F876L ANT reporter assay (antagonist mode); format: cell-based; details: antagonist mode; maximum % inhibition of R1881 control response over tested concentration range; read-out: LNCaP-AR-F876L ANT MAX % Inh
Sequence (P10275 whole entry F877L): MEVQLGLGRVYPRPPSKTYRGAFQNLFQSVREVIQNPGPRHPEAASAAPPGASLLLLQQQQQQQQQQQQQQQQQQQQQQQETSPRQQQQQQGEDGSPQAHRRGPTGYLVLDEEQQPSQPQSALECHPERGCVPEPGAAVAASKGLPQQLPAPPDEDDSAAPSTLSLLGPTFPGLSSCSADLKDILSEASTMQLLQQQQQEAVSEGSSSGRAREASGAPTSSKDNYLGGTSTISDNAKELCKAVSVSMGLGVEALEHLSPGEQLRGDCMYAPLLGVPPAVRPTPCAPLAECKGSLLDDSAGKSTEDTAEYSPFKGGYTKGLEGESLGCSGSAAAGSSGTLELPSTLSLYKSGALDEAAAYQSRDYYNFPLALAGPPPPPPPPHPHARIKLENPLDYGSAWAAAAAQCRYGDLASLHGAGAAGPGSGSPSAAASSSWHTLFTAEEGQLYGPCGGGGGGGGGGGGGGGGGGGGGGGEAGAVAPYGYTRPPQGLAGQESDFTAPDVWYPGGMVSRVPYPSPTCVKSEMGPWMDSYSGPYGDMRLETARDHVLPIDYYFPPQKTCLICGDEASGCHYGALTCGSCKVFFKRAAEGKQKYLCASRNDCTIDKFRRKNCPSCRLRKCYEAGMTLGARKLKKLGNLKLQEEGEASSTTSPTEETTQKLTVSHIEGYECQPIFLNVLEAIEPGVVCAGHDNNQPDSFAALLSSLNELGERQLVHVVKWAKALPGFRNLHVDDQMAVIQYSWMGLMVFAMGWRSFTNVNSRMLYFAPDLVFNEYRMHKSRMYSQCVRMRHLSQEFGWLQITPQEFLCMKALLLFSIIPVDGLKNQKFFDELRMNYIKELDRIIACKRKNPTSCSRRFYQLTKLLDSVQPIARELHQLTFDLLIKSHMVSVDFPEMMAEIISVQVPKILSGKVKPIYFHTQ
QUANTITY_NAME: Emax (%)

N#Cc1ncc(N2C(=O)C3(CCC3)N(c3ccc4c(ccn4CCO)c3)C2=S)cc1C(F)(F)F	102
CN1CCC(Sc2ccc(N3C(=S)N(c4cnc(C#N)c(C(F)(F)F)c4)C(=O)C34CCC4)cc2)CC1	104
CN1CCC(NC(=O)c2ccc(N3C(=S)N(c4cnc(C#N)c(C(F)(F)F)c4)C(=O)C34CCC4)cc2)C1 (stereo not shown)	102
N#Cc1ncc(N2C(=O)C3(CCC3)N(c3ccc(OC4CCNC5(CCC5)C4)nc3)C2=S)cc1C(F)(F)F (racemic)	104
CN1CCC(Oc2ccc(N3C(=S)N(c4cnc(C#N)c(C(F)(F)F)c4)C(=O)C34CCC4)cc2)CC1=O (racemic)	99.1
N#Cc1ncc(N2C(=O)C3(CCC3)N(c3ccc(OC4CCNC(=O)C4)cc3)C2=S)cc1C(F)(F)F (racemic)	100
CN1CC[C@H](CNC(=O)c2ccc(N3C(=S)N(c4cnc(C#N)c(C(F)(F)F)c4)C(=O)C34CCC4)cc2F)C1	99.6

###

target: F876L mutant Androgen Receptor (AR-F876L) (Homo sapiens (Human), UniProt P10275, F877L); assay: LNCaP-AR-F876L ANT reporter assay (antagonist mode); assay type: cell-based; settings: antagonist mode; pIC50 = −Log10(IC50 in Molar); read-out: LNCaP-AR-F876L ANT pIC50 (converted)
QUANTITY_NAME: IC50 (nM)

// known answers, use as guide
CNC(=O)N1CCN(Cc2ccc(N3C(=S)N(c4cnc(C#N)c(C(F)(F)F)c4)C(=O)C34CCC4)cc2)CC1 [Cpd 53]	45.7
N#Cc1ncc(N2C(=O)C3(CCC3)N(c3ccc(CN4CCOCC4)cc3)C2=S)cc1C(F)(F)F [Cpd 217]	355

[I] C[C@@H]1OC(c2ccc(N3C(=S)N(c4cnc(C#N)c(C(F)(F)F)c4)C(=O)C34CCC4)cc2)=C[C@H](O)[C@H]1O [Cpd 135]
[II] CN1CCC(Oc2ccc(N3C(=S)N(c4cnc(C#N)c(C(F)(F)F)c4)C(=O)C34CCC4)cc2)CC12CCC2 (racemic) [Cpd 178]
IN: Between the entries labeled I and II , whose measured IC50 is lower? Selection: enter the item's label.
OUT: I
